# Assayed Target: MarA (Escherichia coli)
# Sequence (P0ACH5 whole entry, looked up): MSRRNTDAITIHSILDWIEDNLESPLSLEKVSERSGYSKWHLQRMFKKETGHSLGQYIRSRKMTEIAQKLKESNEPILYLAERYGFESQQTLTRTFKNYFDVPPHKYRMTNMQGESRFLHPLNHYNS
# Assay: Selective marker (ccdB) under MarA-activated promoter; cell survival under MarA expression (Example 2)
# Assay type: cell-based
# Set-up: key: *: good inhibition of MarA; **: very good inhibition of MarA
# Particulars: inhibition of MarA; cell survival under conditions of MarA expression
Observable: MarA inhibition score (cell survival)

O=c1cc(-c2ccc(O)cc2)oc2ccccc12 [BG, 2-(4-hydroxyphenyl)-4H-chromen-4-one]: *
O=[N+]([O-])c1ccc2nc(-c3ccccc3)n(OCc3ccccc3)c2c1: **
Cc1ccc(COn2c(-c3ccccc3)nc3ccc([N+](=O)[O-])cc32)cc1: *
CSc1nnc2c(n1)OC(c1ccc([N+](=O)[O-])o1)Nc1ccccc1-2 (centres unmarked): *

Moving on to another compound below.
Read off the recorded MarA inhibition score (cell survival) for CCCCSc1nnc2c(n1)OC(c1ccc(OCC)cc1)Nc1ccccc1-2 (centres unmarked)
*

###

# Assayed Target: Rob (Escherichia coli, UniProt P0ACI0)
# Sequence (P0ACI0 whole entry): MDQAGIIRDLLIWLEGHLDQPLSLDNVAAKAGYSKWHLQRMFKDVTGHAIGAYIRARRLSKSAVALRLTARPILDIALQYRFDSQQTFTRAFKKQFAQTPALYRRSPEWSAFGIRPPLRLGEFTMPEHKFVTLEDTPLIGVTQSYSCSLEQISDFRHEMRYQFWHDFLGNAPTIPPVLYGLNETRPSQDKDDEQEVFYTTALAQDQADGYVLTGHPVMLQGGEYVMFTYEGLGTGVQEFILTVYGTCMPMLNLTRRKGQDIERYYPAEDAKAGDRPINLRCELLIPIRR
# Assay: Chemiluminescence DNA binding assay, Rob
# Particulars: E. coli Rob
Observable: log10 of EC50 (log10 of the value in µM)
Log scale reminder: EC50 in µM, then log10 taken.

O=C(Nc1ccc(-c2nc3ccc([N+](=O)[O-])cc3n2O)cc1)c1ccc(F)cc1: 0.67
CN(C)c1ccc(C(=O)Nc2ccc(-c3nc4ccc([N+](=O)[O-])cc4n3O)cc2)cc1 [ATE]: 0.11
O=C(Nc1ccc(-c2nc3ccc([N+](=O)[O-])cc3n2O)cc1)c1cccc(Cl)c1: 0.53
Cc1ccc(C(=O)Nc2ccc(-c3nc4ccc([N+](=O)[O-])cc4n3O)cc2)cc1: 0.87

Moving on to another compound below.
Given O=[N+]([O-])c1ccc2nc(-c3ccc(-c4ccccc4)o3)n(O)c2c1 , report its log10 of EC50 on Rob (Escherichia coli, UniProt P0ACI0).
1.45

###

# Assayed Target: SoxS (Escherichia coli, UniProt P0A9E2)
# Sequence (P0A9E2 whole entry): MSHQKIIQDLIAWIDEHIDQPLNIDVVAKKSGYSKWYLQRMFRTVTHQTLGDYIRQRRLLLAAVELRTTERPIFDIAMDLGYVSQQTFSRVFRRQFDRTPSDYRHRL
# Assay: Chemiluminescence DNA binding assay, SoxS
# Parameters: species or system E. coli
# Particulars: relative to ARD
Observable: EC50 for SoxS compared with ARD

Sample answers from the record:
O=[N+]([O-])c1ccc2nc(-c3ccoc3)n(O)c2c1: higher than that of ARD
O=[N+](O)c1cccc2c1nc(-c1ccco1)n2O: higher than that of ARD
O=C(Nc1ccc(-c2nc3ccc([N+](=O)[O-])cc3n2O)cc1)c1ccccc1: higher than that of ARD
O=[N+]([O-])c1ccc2nc(-c3ccco3)n(O)c2c1: higher than that of ARD
COc1cccc(-c2nc3ccc([N+](=O)[O-])cc3n2O)c1: higher than that of ARD
CN(C)c1ccc(-c2nc3ccc([N+](=O)[O-])cc3n2O)cc1: higher than that of ARD

Given O=C(NCc1ccc(-c2nc3ccc([N+](=O)[O-])cc3n2O)cc1)c1ccccc1 , report its EC50 for SoxS compared with ARD on SoxS (Escherichia coli, UniProt P0A9E2).
higher than that of ARD

Given O=C(Nc1ccc(-c2nc3ccc([N+](=O)[O-])cc3n2O)cc1)c1ccc(Cl)cc1 , report its EC50 for SoxS compared with ARD on SoxS (Escherichia coli, UniProt P0A9E2).
higher than that of ARD

Given NC(=O)c1ccc2nc(-c3ccccc3)n(O)c2c1 , report its EC50 for SoxS compared with ARD on SoxS (Escherichia coli, UniProt P0A9E2).
higher than that of ARD
